Each recorded value in this set is attributed to ChEMBL document CHEMBL2016515.

- studyTarget: Gamma-secretase
- assayNotes: Inhibition of gamma secretase-mediated amyloid beta40 production in human SH-SY5Y cells overexpressing beta-APP C-terminal SPA4CT by electrochemiluminescent analysis
- Type: cell-based
metric: IC50 (nM)
// return numeric value only (unit: nM, not printed)

Query string: Which value of IC50 has been reported for COc1cc(-c2cn(CC(=O)N(CC(F)(F)F)c3cccc4ccccc34)nn2)ccc1-n1cnc(C)c1 in the records?
Result string: 410

Query string: Here is the next molecule: COc1cc(-c2cn(C3CC[C@H]4CCCC[C@@H]4NC3=O)nn2)ccc1-n1cnc(C)c1 (mixture of isomers)
Result string: 3860

Query string: Here is the next molecule: COc1cc(-c2cn([C@H]3C[C@@H](C(C)(C)C)CCN(CC(F)(F)F)C3=O)nn2)ccc1-n1cnc(C)c1
Result string: 170

Query string: Here is the next molecule: COc1cc(-c2cn([C@H]3C[C@@H](C(C)(C)C)CCN(CC(C)(C)C)C3=O)nn2)ccc1-n1cnc(C)c1
Result string: 840

Query string: Here is the next molecule: COc1cc(-c2cn(C3CCCC(C(C)(C)C)NC3=O)nn2)ccc1-n1cnc(C)c1 (racemic)
Result string: 5120

Query string: Here is the next molecule: COc1cc(-c2cn(CC(=O)N(CC(F)(F)F)c3ccc4c(c3)OC(F)(F)O4)nn2)ccc1-n1cnc(C)c1
Result string: 1180

Query string: Here is the next molecule: COc1cc(-c2cn([C@H]3CCCCN(CC(F)(F)F)C3=O)nn2)ccc1-n1cnc(C)c1
Result string: 2210

Query string: Here is the next molecule: COc1cc(-c2cn([C@H]3C[C@@H]([Si](C)(C)C)CCN(Cc4ccccc4)C3=O)nn2)ccc1-n1cnc(C)c1
Result string: 440

Query string: Here is the next molecule: COc1cc(-c2cn([C@H]3C[C@@H](C(F)(F)F)CCN(CC(F)(F)F)C3=O)nn2)ccc1-n1cnc(C)c1
Result string: 210

Query string: Here is the next molecule: COc1cc(-c2cn([C@H]3C[C@@H](C(C)(C)C)CCN(CC45CC6CC(CC(C6)C4)C5)C3=O)nn2)ccc1-n1cnc(C)c1
Result string: 1330

Query string: Here is the next molecule: COc1cc(-c2cn([C@H]3C[C@@H](C(F)(F)F)CCN(Cc4ccccc4)C3=O)nn2)ccc1-n1cnc(C)c1
Result string: 420
